Consider the following binders; for each one, report its phage binding ELISA signal.
biological target: T1, PSMA Fab (biotinylated (site not stated)); assay: clonal phage ELISA on captured PSMA Fab, wells pre-incubated with PSMA antigen as competitor; anti-M13 HRP detection
T1 construct: Biotinylated PSMA Fab captured on neutravidin coated plates in the phage ELISA; also called Anti-PSMA Fab; 006 PSMA Fab
Where no end group is shown, it is not given here.
Returns: the value as a bare number; no unit string appended.

Q: // fetch phage binding ELISA signal given entry AGSMCTPMWMCTGF [Phage-3323]
A: 0.0744

Q: // fetch phage binding ELISA signal given entry IGVVCKPLWMCHGF [Phage-3327]
A: 0.0971

Q: // fetch phage binding ELISA signal given entry IMPKCVPSWMCTGL [Phage-3322]
A: 0.153

Q: // fetch phage binding ELISA signal given entry MEAMCRPAWMCAGF (cysteine pairing not given here; also: fused to pIII of bacteriophage) [Phage-3330]
A: 0.0662

Q: // fetch phage binding ELISA signal given entry IDRMCKPVWMCEGF [Phage-3334]
A: 0.123

Q: // fetch phage binding ELISA signal given entry MYIHCVPEWMCRGF [Phage-3325]
A: 0.0941

Q: // fetch phage binding ELISA signal given entry IEFLCKPMWMCNGF [Phage-3333]
A: 0.0658

Q: // fetch phage binding ELISA signal given entry QVVMCTPEWMCSGF [Phage-3326]
A: 0.0905

Q: // fetch phage binding ELISA signal given entry VNELCIPSWMCNGF [Phage-3331]
A: 0.0845

Q: // fetch phage binding ELISA signal given entry VGPRCVPEWMCIGL [Phage-3324]
A: 0.0954

Q: // fetch phage binding ELISA signal given entry VAPICRPSWMCEWL [Phage-3328]
A: 0.0837

Q: // fetch phage binding ELISA signal given entry PELWCVPSWMCEGF [Phage-3332]
A: 0.0867

Q: // fetch phage binding ELISA signal given entry VDRLCSPAWMCLGF [Phage-3329]
A: 0.0785

Q: // fetch phage binding ELISA signal given entry EGRYCVPEWMCQGF [Phage-3335]
A: 0.0864
